log10(Ki) values recorded for Human m1 receptors (Homo sapiens, UniProt P11229)
Friendly reminder: values = log10 of Ki, unit µM.

Example cases with answers are listed next.
* Cc1nnc(NCCCN2CC3CCC(CC3)C2)c2cc3n(c12)CCCC3 | -2.05
* FC(F)(F)c1nnc(NCCCN2CC3CCC(CC3)C2)c2cc3ccccn3c12 | -0.85
* Cc1nnc(NCCN2CC3CCC(CC3)C2)c2cc3n(c12)CCCC3 | -1.10
* FC(F)(F)c1nnc(NCCCCN2CC3CCC(CC3)C2)c2cc3n(c12)CCCC3 | -0.69

Would you kindly look at the next entry?
Enquiry: Name the reported log10(Ki) value associated with the compound FC(F)(F)c1nnc(NCCCCN2CC3CCC(CC3)C2)c2cc3ccccn3c12
Return: -0.62
